# protocol text: Cytotoxicity assay
# Type: cell-based
# condition details: human, HCT 116 cells, HCT 116 Cytotoxicity, Table 1
IC50 at 72 h values by entry

| compound | IC50 at 72 h |
| --- | --- |
| Sc1cccc2ncccc12 [Compound 7c, Quinoline-5-thiol] | > 100 µM |
| Sc1cccc2ccccc12 [Compound 2] | > 100 µM |
| CSc1cccc2cccnc12 [Compound 6, 8-(Methylthio)quinoline] | > 100 µM |

IC50 at 72 h reported for this compound Sc1cccc2cccnc12 [8TQ, 8-thioquinoline] : 1.3 µM

IC50 at 72 h reported for this compound Cc1cccc2cccnc12 [Compound 3] : > 100 µM

###

# experimental system: AMSH (Homo sapiens)
# Sequence (O95630 1-424): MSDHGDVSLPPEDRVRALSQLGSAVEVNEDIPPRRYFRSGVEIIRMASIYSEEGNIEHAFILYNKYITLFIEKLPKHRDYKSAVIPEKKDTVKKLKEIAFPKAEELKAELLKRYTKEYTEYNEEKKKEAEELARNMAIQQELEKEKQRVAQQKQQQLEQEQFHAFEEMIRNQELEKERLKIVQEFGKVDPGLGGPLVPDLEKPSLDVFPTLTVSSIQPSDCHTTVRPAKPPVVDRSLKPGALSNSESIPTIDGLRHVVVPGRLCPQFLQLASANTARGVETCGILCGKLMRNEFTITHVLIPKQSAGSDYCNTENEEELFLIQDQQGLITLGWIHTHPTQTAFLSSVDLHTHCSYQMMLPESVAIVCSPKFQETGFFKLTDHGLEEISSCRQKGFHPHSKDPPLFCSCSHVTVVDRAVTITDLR
outcome measure: IC50

// IC50 (AMSH (Homo sapiens)) for O=C(NCCc1nccs1)c1cnc2c(S)ccnc2c1 [Compound 50f] = > 100 µM
